# TARGET: E. coli Enopyruvyl-UPD-N-acetylglucosamine reductase, Mur B (Escherichia coli)
# EXPERIMENT_NOTES: biochemical
# MEASUREMENT_SETUP: (E) E. coli enzyme; read-out: MurB IC50 (converted)
Rule: IC50 below 20 µM gives Criterion met, anything at or above gives Criterion not met.

As a guide, the following entries are already answered.
molecule=O=C1O/C(=C\c2cccc(C(F)(F)F)c2)C(O)=C1c1cccc(-c2ccccc2)c1 class="Criterion not met"
molecule=Cc1cc(/C=C2\OC(=O)C(c3cccc(Cl)c3)=C2O)ccc1-c1ccccc1C(F)(F)F class="Criterion met"
molecule="O=C1O/C(=C\\c2ccc(-c3ccccc3)cc2)C(O)=C1c1cc(Cl)cc(Cl)c1 [Example 68]" class="Criterion met"

Next up:
// query Lab log: compare recorded IC50 with 20 µM; is it strictly lower for O=C1O/C(=C\c2ccc(-c3ccccc3)cc2)C(O)=C1c1ccc(Cl)cc1 ?
// result Criterion met

---

# Tested on: enterococci
# EXPERIMENT_NOTES: Minimum inhibitory concentration, microdilution broth method, enterococci
# Type: cell-based
# MEASUREMENT_SETUP: E. faecalis GC 4555; Mueller-Hinton broth, 18-22 hours at 35° C.
REPORTED_PROPERTY: MIC E. faecalis GC 4555

// query For Cc1cc(C=C2OC(=O)C(c3cc(Cl)cc(Cl)c3)=C2O)ccc1-c1ccccc1Cl , what is its reported MIC E. faecalis GC 4555?
// result 2 µg/mL

// query For O=C1O/C(=C\c2ccc(-c3ccccc3)cc2)C(O)=C1c1cc(Cl)cc(Cl)c1 , what is its reported MIC E. faecalis GC 4555?
// result 2 µg/mL

// query For N#Cc1ccc(C2=C(O)/C(=C/c3ccc(-c4ccc(C#N)cc4)cc3)OC2=O)cc1 , what is its reported MIC E. faecalis GC 4555?
// result 64 µg/mL

---

# TARGET: E. coli Enopyruvyl-UPD-N-acetylglucosamine reductase, Mur B (Escherichia coli, UniProt P08373)
# Sequence (P08373 whole entry): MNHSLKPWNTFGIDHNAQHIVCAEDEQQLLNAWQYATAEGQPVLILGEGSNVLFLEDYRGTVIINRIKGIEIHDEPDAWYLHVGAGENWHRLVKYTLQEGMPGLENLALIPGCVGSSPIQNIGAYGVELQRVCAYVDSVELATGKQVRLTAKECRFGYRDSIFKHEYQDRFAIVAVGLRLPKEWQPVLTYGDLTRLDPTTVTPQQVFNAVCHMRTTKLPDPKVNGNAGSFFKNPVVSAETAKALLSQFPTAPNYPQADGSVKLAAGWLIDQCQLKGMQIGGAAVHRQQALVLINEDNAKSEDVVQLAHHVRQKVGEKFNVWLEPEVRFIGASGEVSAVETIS
# EXPERIMENT_NOTES: biochemical
# MEASUREMENT_SETUP: (E) E. coli enzyme
REPORTED_PROPERTY: MurB IC50

// known answers, use as guide
smiles_structure=O=C1O/C(=C\c2cccc(-c3cc(Cl)cc(Cl)c3)c2)C(O)=C1c1cc(Cl)cc(Cl)c1 assay_result="3 µg/mL"
smiles_structure=O=C1O/C(=C\c2ccc(-c3cc(Cl)cc(Cl)c3)cc2)C(O)=C1c1cc(Cl)cc(Cl)c1 assay_result="3 (E) μg/mL"
smiles_structure=O=C1O/C(=C\c2cc(C(F)(F)F)ccc2Cl)C(O)=C1c1ccc(N2CCOCC2)c(F)c1 assay_result="10 µg/mL"
smiles_structure=O=C1O/C(=C\c2ccc(-c3ccccc3)cc2)C(O)=C1c1ccc2ccccc2c1 assay_result="2 (E) μg/mL"
smiles_structure=O=C1O/C(=C\c2ccc3ccccc3c2)C(O)=C1c1cccc(C(F)(F)F)c1 assay_result="11 (E) μg/mL"

// query For Cc1cc(/C=C2\OC(=O)C(c3cc(Cl)cc(Cl)c3)=C2O)ccc1-c1ccccc1OS(C)(=O)=O , what is its reported MurB IC50?
// result 8 µg/mL

// query For CN(C)c1ccc(C=C2OC(=O)C(c3cc(Cl)cc(Cl)c3)=C2O)c2ccccc12 , what is its reported MurB IC50?
// result 3 µg/mL

// query For O=C1O/C(=C\c2cc(C(F)(F)F)ccc2F)C(O)=C1c1ccc(-c2ccccc2)c(F)c1 , what is its reported MurB IC50?
// result 1 (E) μg/mL

// query For Cc1cc(C=C2OC(=O)C(c3cc(Cl)cc(Cl)c3)=C2O)ccc1-c1ccccc1Cl , what is its reported MurB IC50?
// result 2 (E); 2 (S) μg/mL
